# TARGET_ENTITY: 5-hydroxytryptamine receptor 2A (Mus musculus)
# METHOD_NOTES: mouse Htr2a agonists via beta-arrestin recruitment, primary screen, cell-based, luminescence (AID 624169);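 also: 0% = plate median of compound wells and 100% = 30 µM serotonin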
# CONDITIONS_USED: CHO-K1 mHTR2A beta-arrestin complementation, at 7.6 µM, hits give high values, percent of 30 µM serotonin response
Out of some 360,000 compounds screened, about 2,400 (0.67%) were called active. Shown is part of a subset that was picked to be rich in actives.
READOUT_NAME: activation (%)
Give bare numbers, in %.

CCOCCOC(=O)C1=C(C)N(C)C(=O)NC1c1ccccc1F (configuration not stated)    1.37
O=C1CCc2cc(S(=O)(=O)N3CCC(C(=O)NCc4ccccc4Cl)CC3)ccc2N1    19.6
COc1ccc(C)cc1N(C(=O)Cn1nnc(-c2ccc(C)o2)n1)C(C(=O)NC1CCCC1)c1ccncc1 (configuration not stated)    -2.27
CN(N)c1nc(N2CCCC2)nc(N2CCCC2)n1    3.15

Provide the reported activation of each entry below, same order.
1. COc1ccc(CN2CCN(C(=O)CCC(=O)Nc3nnc(C(C)C)s3)CC2)cc1F
2. FC(F)(F)COc1nc(N2CCCCC2)nc(N2CCNCC2)n1
3. CC(C(=O)N(C)CC(=O)Nc1ccccc1C(F)(F)F)N1C(=O)c2ccccc2C1=O (configuration not stated)
4. CCCCNc1c(-c2cccc(Sc3ccc(OC)cc3)c2)nc2ccccn12
5. C=C1C(=O)OC2C1CCC(C)=CCCC1(C)OC21 (configuration not stated)
6. Nc1c(C(=O)O)cnn1-c1ccccc1

Out:
1: 10.4; 2: 25.4; 3: -1.36; 4: 23.6; 5: 17.6; 6: 2.02
